Kindly state logP for each of the entries shown.
MEASUREMENT NOTES: method code SF-HPLC, from DOI: 10.1248/cpb.46.274
Give bare numbers.

Observe how each entry below is paired with its result.
>  <STRUCTURE AS SMILES>
CC(=O)C=Cc1cccc(C#N)c1

>  <logP>
1.59

$$$$
>  <STRUCTURE AS SMILES>
COc1cccc(C=CC(=O)C(F)(F)F)c1

>  <logP>
3.05

$$$$
>  <STRUCTURE AS SMILES>
CC(=O)/C=C/c1cccc(C(F)(F)F)c1

>  <logP>
3.03

$$$$
>  <STRUCTURE AS SMILES>
CC(=O)/C=C/c1ccccc1Cl

>  <logP>
2.85

$$$$

Qu. Name the recorded logP of the item CC(=O)C=Cc1ccc(F)cc1 in your answer.
Ans. 2.22
